A collection of binders and their measured koff
Molecular target: T1, T2 mechanosensitive channel from Thermoplasma volcanium, tag free (Thermoplasma volcanium)
T1 construct: TVN0821, gene amplified from genomic DNA (DSM 4299 [GSS1*]); 297 amino acids per monomer; Cloned into pNIC28-Bsa4 (TEV site) and pET46 (Enterokinase site); In detergent (0.03 % DDM); also called T2 channel; tag free T2-channel; source: E. coli C43(DE3), purified (DDM solubilised, IMAC, tag cleavage, second IMAC, gel filtration); not shown: His-tag, N-terminal, cleaved
T1 chain: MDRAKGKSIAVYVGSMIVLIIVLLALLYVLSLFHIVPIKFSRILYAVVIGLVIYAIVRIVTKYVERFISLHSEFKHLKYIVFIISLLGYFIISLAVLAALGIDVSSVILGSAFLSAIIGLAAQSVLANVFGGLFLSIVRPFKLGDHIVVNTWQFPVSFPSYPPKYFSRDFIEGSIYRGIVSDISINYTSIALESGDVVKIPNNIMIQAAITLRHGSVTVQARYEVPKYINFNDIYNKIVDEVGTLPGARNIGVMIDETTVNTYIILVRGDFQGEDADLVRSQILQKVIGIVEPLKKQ
Assay: SPR; BIAcore 3000, 25 °C, 20 mM sodium phosphate pH 7.4, 150 mM NaCl, 0.03 % DDM; T2 channel amine-coupled on CM5 (1500 - 2000 RU); nanobodies 0.35 - 86.1 nM injected in triplicates; global fit to a simple bimolecular model, KD = kd/ka
Conditions: both partners purified
A number alone suffices; assume s⁻¹.

Indicate the recorded koff value for this binder: nanobody 18 (VHH, pHEN6 vector; also called Nb 18; CA-number 3401; source: E. coli WK6 periplasm, purified (IMAC, gel filtration); not shown: His-tag, C-terminal, kept) VHH: QVQLQESGGGLVQPGGSLRLSCAASGSIFSINAMGWYRQAPGKQRELVAFITKVGNTNYADSVKDRFAISRDNAKNTVYLQMNSLKPEDTAVYYCYADIENSSNYKQDFYWGQGTQVTVSS
0.00052

Provide only the value of recorded koff for nanobody 6 (VHH, pHEN6 vector; also called Nb 6; CA-number 3387; source: E. coli WK6 periplasm, purified (IMAC, gel filtration); not shown: His-tag, C-terminal, kept) VHH: QVQLQESGGGLVQPGGSLRLSCAASGSIFSINAMGWYRQAPGKQRELVAVLTRRGSTNYADSMKGRFTISRDNTKNTVYLQMNSLKPEDTAVYYCNADLEGRPLYWGQGTQVTVSS
0.0081

Look up koff of nanobody 10 (VHH, pHEN6 vector; also called Nb 10; CA-number 3391; source: E. coli WK6 periplasm, purified (IMAC, gel filtration); not shown: His-tag, C-terminal, kept) VHH: QVQLQESGGGLVQPGGSLRLSCAASGSIFSINSMDWYRQAPGKQRELVATITSGGSTNYADSVKGRFTISRDNAKNTVYLQMNSLKPEDTAVYYCHAVVATRGGYWGQGTQVTVSS and report it.
0.0036

Using the record for nanobody 8 (VHH, pHEN6 vector; also called Nb 8; CA-number 3389; source: E. coli WK6 periplasm, purified (IMAC, gel filtration); not shown: His-tag, C-terminal, kept) VHH: QVQLQESGGGLVQPGGSLRLSCAASGSPFSFGAMGWYRQAPGKQRELAAIITNAGSTMYADSVKGRFTVSRVNAKNTVSLQMNNLKPEDTAVYYCYAQTAPVADVTWGQGTQVTVSS , state its measured koff.
0.00089

Please look at the following binder next.
Give reported koff value for nanobody 1 (VHH, pHEN6 vector; also called Nb 1; CA-number 3379; source: E. coli WK6 periplasm, purified (IMAC, gel filtration); not shown: His-tag, C-terminal, kept) VHH: QVQLQESGGGLVQPGGSLRLSCAASGRIPFITAMGWYRQAPGKQRELLASVTNSEITNYADSVKGRFTISRDNARNRVYLQMNSLKPEDTAVYYCNVKRAGNLIDYWGQGTQVTVSS
0.0278
